Test system: CD2F1 mice, L1210 leukemia ip, survival T/C
Assay: NCI In Vivo Anticancer Drug Screen. Data for tumor model L1210 Leukemia (intraperitoneal) in CD2F1 (CDF1) mice
Conditions: endpoint: mean survival time; dose: 200.0 mg/kg/injection; schedule: Q04DX003 (ip); vehicle: saline with Tween-80; higher = longer survival
Toxic doses and inconclusive results are not listed.
Quantity Kind: T/C

Query: So what does the record say about T/C for Clc1ccc(CN2CN(Cc3ccc(Cl)cc3)CN(Cc3ccc(Cl)cc3)C2)cc1 ?
Reply: 97 % of control

Query: // T/C lookup, key: O=C(O)C1CCC(CC2CCCCC2)CC1 (stereo not drawn)
Reply: 94 % of control

Query: Requested field: T/C. Item: O=c1[nH]c(SCc2ccccc2)nc(Cc2ccccc2)c1CCO
Reply: 94 % of control

Query: Query (compound): O=C1OC(Cc2ccccc2)(c2ccccc2)c2ccccc21 (stereo not drawn) ; field requested: T/C
Reply: 88 % of control

Query: Given the entry O=C(CCC(=O)c1cccc([N+](=O)[O-])c1)NNc1ccc([N+](=O)[O-])cc1[N+](=O)[O-] , report its measured T/C.
Reply: 98 % of control

Query: T/C lookup needed for CCCCCCC(O)/C=C/c1ccc(Cl)cc1 (stereo not drawn) , thanks.
Reply: 102 % of control

Query: Given the compound C=NCC#N , what is its reported T/C?
Reply: 101 % of control

Query: What value of T/C has been reported for the following compound? COc1cc2c(cc1OC)C1CC(O)C3CCCCC3N1CC2 (stereo not drawn)
Reply: 93 % of control
